Sourced from patent US20090111778A1

# target-of-assay: UniProt P97612
# Sequence (P97612 whole entry): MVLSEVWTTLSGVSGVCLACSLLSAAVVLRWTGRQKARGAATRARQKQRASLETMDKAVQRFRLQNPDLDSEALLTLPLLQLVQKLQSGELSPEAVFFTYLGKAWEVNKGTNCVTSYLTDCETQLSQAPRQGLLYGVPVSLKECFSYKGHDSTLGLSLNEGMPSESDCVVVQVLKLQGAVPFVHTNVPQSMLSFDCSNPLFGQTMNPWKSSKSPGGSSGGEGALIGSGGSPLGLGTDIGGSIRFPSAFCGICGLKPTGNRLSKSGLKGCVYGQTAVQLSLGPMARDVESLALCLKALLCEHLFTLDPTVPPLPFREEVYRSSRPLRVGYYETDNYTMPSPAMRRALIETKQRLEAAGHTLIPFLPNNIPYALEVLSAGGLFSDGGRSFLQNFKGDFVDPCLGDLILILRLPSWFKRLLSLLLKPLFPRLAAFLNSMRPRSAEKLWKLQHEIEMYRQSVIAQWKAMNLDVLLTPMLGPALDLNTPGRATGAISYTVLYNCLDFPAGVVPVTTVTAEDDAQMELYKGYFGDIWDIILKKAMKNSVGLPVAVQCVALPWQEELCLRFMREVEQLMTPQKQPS
Where a name gives a salt, the structure may show the parent alone.
Assign labels as follows, please: Fulfilled for IC50 below 0.2 µM; Not fulfilled for IC50 equal to or exceeding 0.2 µM.

>>> df
                                   compound          class
0  N#Cc1cccc(-c2ccc(CN3CCC(CCCC(=O)c4ncco4)CC3)cn2)c1      Fulfilled
1      O=C(CCCC1CCN(Cc2ccccc2Br)CC1)c1ncco1  Not fulfilled
2  O=C(CCCC1CCN(C(=O)CCc2ccc(Oc3ccccc3)cc2)CC1)c1ncco1      Fulfilled
3    COc1ccc(CN2CCC(CCCC(=O)c3ncco3)CC2)cc1  Not fulfilled
4  Cc1ccc(S(=O)(=O)N2CCC(CCCC(=O)c3ncc(-c4cccc(C(=O)O)n4)o3)CC2)cc1 [Example 151, trifluoroacetic acid salt]      Fulfilled
5  CC(C)c1ccc(CN2CCC(CCCC(=O)c3ncco3)CC2)cc1      Fulfilled
6      CC(C)OC(=O)N1CCC(CCCC(=O)c2ncco2)CC1      Fulfilled
7  O=C(CCCC1CCN(S(=O)(=O)Cc2ccccc2)CC1)c1ncco1  Not fulfilled
8     Cc1ccc(CN2CCC(CCCC(=O)c3ncco3)CC2)cc1  Not fulfilled

* * *

# target-of-assay: human FAAH (Homo sapiens, UniProt O00519)
# Construct: expressed in transfected cells
# assay-notes: Assay Method 1: FAAH assay, hydrolysis of 3H-anandamide by homogenate of SK-N-MC cells transfected with human FAAH
# Format: biochemical
# condition-parameters: human FAAH; T84 or transfected SK-N-MC cell homogenate; 3H-AEA tracer 80 nM; rt 1 h; pH 9; read-out: Assay 1 IC50
Assign labels as follows, please: Met for IC50 below 20 nM; Not met for IC50 equal to or exceeding 20 nM.

>>> df
                           smiles_structure                           target_of_assay    class
0  COC(=O)c1cccc(-c2cnc(C(=O)CCCC3CCN(Cc4ccc(C(C)C)cc4)CC3)o2)n1  human FAAH (Homo sapiens, UniProt O00519)      Met
1        O=C(CCCC1CCN(Cc2ccccn2)CC1)c1ncco1  human FAAH (Homo sapiens, UniProt O00519)  Not met
2    O=C(CCCC1CCN(C(=O)CC2CCCC2)CC1)c1ncco1  human FAAH (Homo sapiens, UniProt O00519)  Not met
3  Cc1ccc2nc(Cl)c(CN3CCC(CCCC(=O)c4ncco4)CC3)cc2c1  human FAAH (Homo sapiens, UniProt O00519)      Met
4      O=C(CCCC1CCN(Cc2ccccc2Cl)CC1)c1ncco1  human FAAH (Homo sapiens, UniProt O00519)  Not met

* * *

# target-of-assay: human FAAH (Homo sapiens)
# Construct: expressed in transfected cells
# assay-notes: Assay Method 1: FAAH assay, hydrolysis of 3H-anandamide by homogenate of SK-N-MC cells transfected with human FAAH
# Type: biochemical
# condition-parameters: human FAAH; T84 or transfected SK-N-MC cell homogenate; 3H-AEA tracer 80 nM; rt 1 h; pH 9; read-out: Assay 1 IC50
Structures can show the parent of a compound that is named as a salt.
quantity-name: IC50 (nM)

In [3]: df
Out[3]:
                                   compound  quantity_name  quantitative_result
0  CC(C)c1ccc(CN2CCC(CCCC(=O)c3ncc(C(=O)O)o3)CC2)cc1 [Example 144, trifluoroacetic acid salt]           IC50                   75
1  O=C(CCCC1CCN(Cc2ccc(-c3ccsc3)nc2)CC1)c1ncco1           IC50                   15
2  COc1ccc(S(=O)(=O)N2CCC(CCCC(=O)c3ncco3)CC2)cc1           IC50                    2
3  O=C(CCCC1CCN(Cc2ccc(N3CCOCC3)nc2)CC1)c1ncco1           IC50                  180

* * *

# target-of-assay: human FAAH (Homo sapiens, UniProt O00519)
# Construct: expressed in transfected cells
# Sequence (O00519 1-579): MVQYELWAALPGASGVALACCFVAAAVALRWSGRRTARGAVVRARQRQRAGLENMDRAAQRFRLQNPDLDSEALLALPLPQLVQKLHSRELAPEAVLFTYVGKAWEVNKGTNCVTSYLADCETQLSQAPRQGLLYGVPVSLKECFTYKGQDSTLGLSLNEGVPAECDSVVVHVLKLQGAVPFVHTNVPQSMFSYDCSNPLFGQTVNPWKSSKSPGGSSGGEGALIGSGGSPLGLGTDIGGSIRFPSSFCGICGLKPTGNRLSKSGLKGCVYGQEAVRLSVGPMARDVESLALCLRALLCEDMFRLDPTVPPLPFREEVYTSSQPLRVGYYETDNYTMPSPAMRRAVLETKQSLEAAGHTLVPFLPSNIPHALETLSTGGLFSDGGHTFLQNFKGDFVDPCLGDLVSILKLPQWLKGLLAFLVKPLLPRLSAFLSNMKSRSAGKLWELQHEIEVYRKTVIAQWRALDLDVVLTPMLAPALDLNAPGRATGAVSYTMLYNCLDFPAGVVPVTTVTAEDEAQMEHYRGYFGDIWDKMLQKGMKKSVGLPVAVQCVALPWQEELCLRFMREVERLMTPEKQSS
# assay-notes: Assay Method 1: FAAH assay, hydrolysis of 3H-anandamide by homogenate of SK-N-MC cells transfected with human FAAH
# Type: biochemical
# condition-parameters: human FAAH; T84 or transfected SK-N-MC cell homogenate; 3H-AEA tracer 80 nM; rt 1 h; pH 9; read-out: Assay 1 IC50
pIC50: −log10 of the molar value.
Here, each record is paired with measured pIC50 data.
quantity-name: pIC50

>>> df
                                   compound                           target_of_assay  quantity_name  quantitative_result
0  O=C(CCCC1CCN(Cc2ccc(N3CCOCC3)cc2)CC1)c1ncco1 [Example 106]  human FAAH (Homo sapiens, UniProt O00519)          pIC50                 5.70
1  CC(C)(C)OC(=O)N1CCC(CCCC(=O)c2ncc(-c3ccccn3)o2)CC1 [Example 119]  human FAAH (Homo sapiens, UniProt O00519)          pIC50                 9.10
2  COCCOC(=O)N1CCC(CCCC(=O)c2ncco2)CC1 [Example 65]  human FAAH (Homo sapiens, UniProt O00519)          pIC50                 7.16
3  Cc1cc(CC(=O)N2CCC(CCCC(=O)c3ncco3)CC2)on1 [Example 43]  human FAAH (Homo sapiens, UniProt O00519)          pIC50                 5.40
4  CC(C)C(=O)N1CCC(CCCC(=O)c2ncco2)CC1 [Example 30]  human FAAH (Homo sapiens, UniProt O00519)          pIC50                 6.60
5  CCCCCCCN1CCC(CCCC(=O)c2ncco2)CC1 [Example 126]  human FAAH (Homo sapiens, UniProt O00519)          pIC50                 7.64
6  O=C(CCCC1CCN(Cc2ccc(Oc3ccccc3)cc2)CC1)c1ncco1 [Example 15]  human FAAH (Homo sapiens, UniProt O00519)          pIC50                 8.40
7  Cc1ccc(CN2CCC(CCCC(=O)c3ncco3)CC2)cc1 [Example 18]  human FAAH (Homo sapiens, UniProt O00519)          pIC50                 6.40
8  O=C(CCCC1CCN(Cc2ccc(Cl)nc2)CC1)c1ncco1 [Example 75]  human FAAH (Homo sapiens, UniProt O00519)          pIC50                 6.22

* * *

# target-of-assay: human FAAH (Homo sapiens)
# Construct: expressed in transfected cells
# assay-notes: Assay Method 1: FAAH assay, hydrolysis of 3H-anandamide by homogenate of SK-N-MC cells transfected with human FAAH
# Format: biochemical
# condition-parameters: human FAAH; T84 or transfected SK-N-MC cell homogenate; 3H-AEA tracer 80 nM; rt 1 h; pH 9; read-out: Assay 1 IC50
Assign labels as follows, please: class 1 for IC50 below 100 nM; class 0 for IC50 equal to or exceeding 100 nM.

                           smiles_structure            target_of_assay    class
0  O=C(CCCC1CCN(Cc2cnc3ccccc3n2)CC1)c1ncco1  human FAAH (Homo sapiens)  class 0
1   O=C(CCCC1CCN(C(=O)CCC2CCCC2)CC1)c1ncco1  human FAAH (Homo sapiens)  class 1
2  O=C(CCCC1CCN(Cc2ccc3c(c2)OC(F)(F)O3)CC1)c1ncco1  human FAAH (Homo sapiens)  class 1
3  O=C(CCCC1CCN(Cc2cc(F)c(F)c(F)c2)CC1)c1ncco1  human FAAH (Homo sapiens)  class 1
4  O=C(CCCC1CCN(Cc2ccc(OC3CCCCC3)cc2)CC1)c1ncco1  human FAAH (Homo sapiens)  class 0
5      COc1ccccc1CN1CCC(CCCC(=O)c2ncco2)CC1  human FAAH (Homo sapiens)  class 0
6  Cc1cccc(CC(=O)N2CCC(CCCC(=O)c3ncco3)CC2)c1  human FAAH (Homo sapiens)  class 0
7    O=C(CCCC1CCN(Cc2cc(F)ccc2F)CC1)c1ncco1  human FAAH (Homo sapiens)  class 1
8        CCCOC(=O)N1CCC(CCCC(=O)c2ncco2)CC1  human FAAH (Homo sapiens)  class 1
